- target under test: UniProt:P21554
- Sequence (P21554 whole entry): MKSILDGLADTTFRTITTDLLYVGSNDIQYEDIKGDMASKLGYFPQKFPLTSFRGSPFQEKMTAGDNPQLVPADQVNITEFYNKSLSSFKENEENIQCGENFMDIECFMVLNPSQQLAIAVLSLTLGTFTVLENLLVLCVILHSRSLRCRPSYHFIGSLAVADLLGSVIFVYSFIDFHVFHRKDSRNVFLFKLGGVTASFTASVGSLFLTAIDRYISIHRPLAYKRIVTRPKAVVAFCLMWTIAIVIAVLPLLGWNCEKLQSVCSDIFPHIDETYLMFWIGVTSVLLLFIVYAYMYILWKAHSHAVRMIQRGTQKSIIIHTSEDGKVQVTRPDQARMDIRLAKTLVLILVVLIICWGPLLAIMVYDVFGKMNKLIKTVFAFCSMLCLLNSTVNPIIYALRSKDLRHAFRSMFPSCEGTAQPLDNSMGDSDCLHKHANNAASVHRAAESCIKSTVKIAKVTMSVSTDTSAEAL
- test description: Inverse agonist activity at human CB1 receptor expressed in African green monkey COS7 cells co-expressing G-protein in presence of CP55940 by IP3 assay
- Format: functional, cell membranes, Membrane
endpoint: IC50
Remember to put the unit after the number in your answer.

Known IC50 results, listed for orientation:
IC50 reading for O=C(O)Cc1c(C(=O)N2CCC(Oc3cccc(F)c3)CC2)nn(-c2ccccc2Cl)c1-c1ccc(Cl)cc1 : 0.015 µM

IC50 reading for O=C(O)Cc1c(C(=O)N2CCC(Oc3ccc(F)c(F)c3)CC2)nn(-c2ccccc2Cl)c1-c1ccc(Cl)cc1 : 0.012 µM

IC50 reading for O=C(O)Cc1c(C(=O)N2CCC(Oc3cccc(F)c3F)CC2)nn(-c2ccccc2Cl)c1-c1ccc(Cl)cc1 : 0.015 µM

Turning now to a further record.
IC50 reading for O=C(O)Cc1c(C(=O)N2CCC(Oc3cccc(Cl)c3)CC2)nn(-c2ccccc2Cl)c1-c1ccc(Cl)cc1 : 0.01 µM

----------
This listing pairs molecules with measured Activity.
- test description: Subchronic toxicity in DIO mouse assessed as reduction in body weight at 10 mg/kg, po measured after 7 days
- Type: organism-based
- Design: scale not given: the % may be the effect or the level left
- condition info: in vivo, 168 h, time 7 day

Known Activity results, listed for orientation:
Activity reading for O=C(O)Cc1c(C(=O)N2CCC(Oc3ccc(F)c(F)c3)CC2)nn(-c2ccccc2Cl)c1-c1ccc(Cl)cc1 : < 2%

Activity reading for O=C(O)Cc1c(C(=O)N2CCC(Oc3cccc(F)c3)CC2)nn(-c2ccccc2Cl)c1-c1ccc(Cl)cc1 : < 2%

Turning now to a further record.
Activity reading for O=C(c1nn(-c2ccccc2Cl)c(-c2ccc(Cl)cc2)c1Cc1nn[nH]n1)N1CCC(Oc2ccc(F)c(F)c2)CC1 : < 2%
